Ki values for C-C chemokine receptor type 2 (Homo sapiens, UniProt P41597), compiled from several publications.
So basically, if Ki comes in under 300 nM it's label 1, and if it's 300 nM or more it's label 0.

Hello, I'm reviewing records and need to know if Ki of "O=C(O)c1cc2cc(O)ccc2n1Cc1ccc(Cl)c(Cl)c1" is below 300 nM. Could you check?
label 1

Thanks! And Cc1cccc(C2CCC(N3CCC(NC(=O)CNC(=O)c4cccc(C(F)(F)F)c4)CC3)CC2)c1 (stereo not drawn) ?
label 1

Thanks! And CC(C)[C@]1(C(=O)NCc2cc(C(F)(F)F)cc(C(F)(F)F)c2)CC[C@@H](NC2CCc3cc(O)ccc32)C1 (stereo partly drawn) ?
label 1

Thanks! And "CC(C)[C@]1(C(=O)NCc2cc(C(F)(F)F)cc(C(F)(F)F)c2)CC[C@@H](NCCc2ccccc2)C1" ?
label 0

Thanks! And "O=C(/C=C/c1ccc(Cl)c(Cl)c1)NCCCCCN1CCC(c2c[nH]c3ccccc23)CC1" ?
label 0

Thanks! And "Cc1ccc(/C=C/C(=O)NCCCCCN2CCC(c3c[nH]c4ccccc34)CC2)cc1" ?
label 0

Thanks! And "CC(C)[C@]1(C(=O)NCc2cc(C(F)(F)F)cc(C(F)(F)F)c2)CC[C@@H](NCc2ccccc2)C1" ?
label 0

Thanks! And CC(C)[C@]1(C(=O)NCc2cc(C(F)(F)F)cc(C(F)(F)F)c2)CC[C@@H](NC2CCCc3ccccc32)C1 (stereo partly drawn) ?
label 1

Thanks! And "O=C(/C=C/c1ccc(I)cc1)NCCCCCN1CCC(c2c[nH]c3ccccc23)CC1" ?
label 0

Thanks! And COc1cc2c(cc1OC)C(N[C@@H]1CC[C@@](C(=O)NCc3cc(C(F)(F)F)cc(C(F)(F)F)c3)(C(C)C)C1)CC2 (stereo partly drawn) ?
label 1

Thanks! And "CCCCc1ccc(/C=C/C(=O)NCCCCCN2CCC(c3c[nH]c4ccccc34)CC2)cc1" ?
label 0

Thanks! And COc1cccc(C2CCC(N3CCC(NC(=O)CNC(=O)c4cccc(C(F)(F)F)c4)CC3)CC2)c1 (stereo not drawn) ?
label 1

Thanks! And "O=C(Cc1ccc(Cl)c(Cl)c1)NCCCCCN1CCC(c2c[nH]c3ccccc23)CC1" ?
label 0

Thanks! And "Cc1ccc(-c2ccc3c(c2)C=C(C(=O)Nc2ccc(C[N+](C)(C)C4CCOCC4)cc2)CCC3)cc1.[Cl-]" ?
label 1

Thanks! And CC(C)[C@]1(C(=O)NCc2cc(C(F)(F)F)cc(C(F)(F)F)c2)CC[C@@H](NC2CCc3cc(Cl)ccc32)C1 (stereo partly drawn) ?
label 1

Thanks! And "CC(C)[C@]1(C(=O)NCc2cc(C(F)(F)F)cc(C(F)(F)F)c2)CC[C@@H](NC2CCOCC2)C1" ?
label 1

Thanks! And O=C(CNC(=O)c1cccc(C(F)(F)F)c1)NC1CCN(C2CCC(c3ccc(O)cc3)CC2)CC1 (stereo not drawn) ?
label 1

Thanks! And CN1CCCC(CN2CCN(C(=O)Nc3ccc(Cl)c(Cl)c3)CC2)C1 (stereo not drawn) ?
label 0

###

pKi values for C-C chemokine receptor type 2 (Homo sapiens), compiled from several publications.
pKi: −log10 of the molar value.
Parameter threshold = 7. Response is 1.0 when pKi meets or exceeds it, else 0.0.

Decide: is the reported value of pKi for "Cc1ccc(CN2CC[C@@H](NC(=O)CNC(=O)c3cccc(C(F)(F)F)c3)C2)c(C)c1" equal to or greater than 7?
0.0

Thanks! And "CO[C@@H]1COCC[C@@H]1NC1CCN(C(=O)c2nc(C(F)(F)F)nc(N3CCc4cc(C(F)(F)F)ccc4C3)c2C)CC1" ?
1.0

Thanks! And Cc1ccc2c(c1)C(N[C@@H]1CC[C@@](C(=O)NCc3cc(C(F)(F)F)cc(C(F)(F)F)c3)(C(C)C)C1)CC2 (stereo partly specified) ?
1.0

Thanks! And "O=C(/C=C/c1ccc(-c2ccccc2)cc1)NCCCCCN1CCC(c2c[nH]c3ccccc23)CC1" ?
0.0
